All values here come from patent US20260028403A1.

# Subject of test: T1, Human CLDN18.2 (human)
# T1 construct: on transfected HEK293-6E cells or native on SNU 601 cells
# Protocol summary: flow cytometry, HEK293-6E + human CLDN18.2, 4PL fit
Measure name: pEC50
As a rule, pEC50 stands for the negative log10 of the concentration, concentration in M.

Consider the reported pEC50 for these binders:
[
  {
    "Binder": "v37411 (antibody, human IgG1, V domains shown, human IgG1-based monoclonal antibody; also called H5-L4; anti-CLDN18.2 mAb) VH: QVQLVESGGGLVQPGGSLRLSCSVSGIDLSSNPMIWVRQAPGKGLQYIGIIDTDGSTYYADWAKGRFTISKDSTTVYLQINSPRAEDTAVYYCARRLHGSSNGYYDDLWGQGTLVTVSS VL: DGQMTQSPSSVSASVGDRVTITCQASQSIYSYLSWYQQKPGQRPKLLIYKASTLASGVPSRFSGSGSGTDFTLTISSVQPEDFATYYCQQGYTVTNVDKNTFGGGTKVEIK",
    "pEC50": 8.98
  },
  {
    "Binder": "v35777 (antibody, human IgG1, V domains shown, also called parental rabbit chimeric; rabbit-human chimeric IgG1/kappa anti-CLDN18.2) VH: QSLEESGGRLVTPGTPLTLTCTVSGIDLSSNPMIWVRQAPGKGLQYIGIIDTDGSTYYASWAKGRFTGSKTSTTVDLKITSPTTEDTATYFCARRLHGSSNGYYDDLWGQGTLVTISS VL: DGVMTQTPSSVSAAVGGTVTIKCQASQSIYSYLSWYQQKPGQRPKLLIYKASTLASGVPSRFKGSGSGTEFTLTISGVQCDDAATYYCQQGYTVTNVDKNTFGGGTEVVVK",
    "pEC50": 8.89
  }
]

Consider the record given below.
Request: pEC50 lookup needed for v37408 (antibody, human IgG1, V domains shown, human IgG1-based monoclonal antibody; also called H4-L2) VH: QVQLVESGGGLVQPGGSLRLSCSVSGIDLSSNPMIWVRQAPGKGLEYIGIIDTDGSTYYADWAKGRFTISKDSTTVYLQMNSLRAEDTAVYYCARRLHGSSNGYYDDLWGQGTLVTVSS VL: DGQMTQSPSSVSASVGDRVTITCQASQSIYSYLSWYQQKPGQRPKLLIYKASTLASGVPSRFSGSGSGTDFTLTISSVQPEDAATYYCQQGYTVTNVDKNTFGGGTKVEVK , thanks.
Result: 8.73
